test system: Yap1 mRNA; assay: Antisense inhibition of human Yap1 in SNU-449 cells by modified oligonucleotides, single dose (Example 5, RTS36584); assay type: cell-based; details: Table 48; Yap1 mRNA level relative to untreated control; modified oligonucleotides targeting SEQ ID NO.: 1 and 2
Strand notation (5' to 3'): a small letter for the sugar, then the base; units joined by * are phosphorothioate-linked, units joined directly phosphodiester-linked; [ ] holds rarer units or linkages, { } end groups; capitals alone tell only the bases. e = 2'-O-(2-methoxyethyl) (MOE); k = constrained ethyl (cEt); [5mC] = 5-methylcytosine; d = 2'-deoxy (DNA)
Listed next: entries and their corresponding YAP1 (% UT).
Express your answer as a number followed by its unit.

INSERT INTO assay_data (substance, value_reported) VALUES
  ('1074728 (antisense kT*kG*kA*dG*dG*dT*dA*dT*dA*dA*d[5mC]*dT*dG*kG*kG*k[5mC]) [Compound 1074728]', '14 % UT');

If you can, please state the reported YAP1 (% UT) value of 1198309 (k[5mC]*kT*kT*dT*dT*dA*d[5mC]*dA*dT*dT*dA*dG*kG*eA*kA*e[5mC]; antisense) [Compound 1198309] . 85 % UT

For 1197204 (antisense k[5mC]*kA*kA*d[5mC]*dT*d[5mC]*dT*dT*dA*dT*dA*dT*dG*kG*kT*kT) [Compound 1197204] , what is its reported YAP1 (% UT)? 89 % UT

Looking for the measured YAP1 (% UT) of 1198333 (kA*kT*kT*d[5mC]*dA*dG*dA*dT*dT*dT*dA*dG*kG*eA*kT*eG; antisense) [Compound 1198333] , can you help? 77 % UT

Suppose we examine the substance 1198328 (kA*kT*kT*dT*dA*dG*dG*dA*dT*dG*d[5mC]*dA*kT*eG*kG*eT; antisense) [Compound 1198328] ; what YAP1 (% UT) value has been reported? 42 % UT

Return reported YAP1 (% UT); argument: 1198343 (kA*kT*kT*dG*d[5mC]*dA*dA*dT*d[5mC]*dT*dG*dT*k[5mC]*eT*kG*eA; antisense) [Compound 1198343] 39 % UT

Each recorded value in this set is attributed to patent US11214803B2.
